Readout Type: melting point

// worked examples, melting point included
Molecule | Readout Type | Endpoint Value
CCC(=O)NCCSC(=O)CC | melting point | 48 to 49 °C
O=C(COc1cc(-c2ccc([N+](=O)[O-])cc2)nc2cccc(C(F)(F)F)c12)N1CCOCC1 | melting point | 222 °C
ON=c1cc(-c2cc3cccn3cn2)oc2ccc(OCCc3ccc(Cl)cc3)cc12 | melting point | 247 to 249 °C
Nc1ccc(Sc2c(NCC3CC3)cc(C(=O)O)cc2S(N)(=O)=O)cc1 | melting point | 221 to 223 °C
COc1ccc2[nH]cc(CC(=O)N3C[C@@H]4[C@H](C3)[C@@](O)(c3ccccc3OC)[C@H](O)CC4(c3ccccc3)c3ccccc3)c2c1 (racemic) | melting point | 204 to 206 °C

Dear colleague, I am looking for the recorded melting point of the following molecule: CCOC(=O)c1nsc(Br)c1O
44 to 47 °C

Continue with COc1cn(-c2ccc(-n3cccn3)cc2F)nc(-c2ccnn2-c2ccccc2F)c1=O
202 to 206 °C

Continue with CC(C)(C)NC(=O)c1nn(-c2ccc([N+](=O)[O-])cc2)c2c1C1CCC2C1 (centres undefined)
224 to 226 °C

Continue with CS(=O)(=O)c1ccc(-c2cnn(CC=C(Cl)Cl)c(=O)c2-c2ccc(F)cc2)cc1
150 to 152 °C

----------
Readout Type: melting point

// worked examples, melting point included
Molecule | melting point
O=C1C=C(c2ccccc2C(F)(F)F)CO1 | 49 to 50 °C
CN(C)C1(c2ccccc2)CCC2(OCCc3c2[nH]c2ccccc32)C(Sc2ccccc2)C1 (stereo not given) | 228 to 233 °C
O=c1c2c(oc3c1nnn3Cc1ccccc1)CCS2 | 157 to 160 °C

Dear colleague, I am looking for the recorded melting point of the following molecule: NCC(=NNc1ccccc1)c1ccccc1
106 to 108 °C

Continue with COC(=O)N1CCC(CCC(=O)O)CC1
88 to 90 °C

Continue with COc1ccc(C(=O)CBr)cc1C12CC3CC(CC(C3)C1)C2
140 to 141 °C

Continue with CN(c1cccc2cc(-c3ncc(CCC(=O)NN)s3)[nH]c12)S(=O)(=O)c1cccs1
224 to 226 °C

----------
Readout Type: melting point

// worked examples, melting point included
Compound | Readout Type | Endpoint Value
CC(C)(F)[C@H]1C(=O)N[C@@H]1CC(=O)OCc1ccccc1 (racemic) | melting point | 112 to 116 °C
COc1cc(NC(=O)Nc2ccccc2)cc(Cl)n1 | melting point | 161 to 162 °C
COC(=O)c1cn(C2=CC(C)(C)Oc3ccc(C#N)cc32)c2ccccc12 | melting point | 177 to 180 °C
COC(=O)CCCC(=O)c1ccc(OC)c(I)n1 | melting point | 111 °C

Dear colleague, I am looking for the recorded melting point of the following compound: COC(=O)Cn1c(Cc2ccccc2)ccc(NC(=O)CCc2ccccc2)c1=O
95 to 97 °C

Continue with O=C1N[C@@H](C(=O)N2C[C@H](O)C[C@H]2C(=O)O)CCCCCC[C@@H]1CS
128 to 130 °C

----------
melting point values, listed per item

// worked examples, melting point included
Compound | melting point
O=C(O)COc1ccc(SCCc2ccc(-c3ccc(C(F)(F)F)cc3)cc2)c2c1CCC2 | 170 to 172 °C
NC(=O)c1nc(CN2CCOCC2)n(-c2ccc(Cl)cc2C(=O)c2ccccc2Cl)n1 | 165 to 167 °C
O=C(O)c1ccc(CCOCCCCCCBr)cc1 | 85 to 87.5 °C

Dear colleague, I am looking for the recorded melting point of the following compound: CC(=O)c1ccc(NS(C)(=O)=O)c(Oc2ccccc2F)c1
92 to 94 °C

Continue with NC(=O)c1nc(-c2cccnc2)nc2c1[nH]c(=O)n2Cc1ccccc1
334 to 335 °C

Continue with Fc1cc(F)c2c(c1)CCC(n1cc[nH]c1=S)C2 (stereo not given)
260 to 261 °C

Continue with CC12CCC(=O)C=C1CCC1C2CCC2(C)C1CCC2(OC=O)C(=O)CCl (stereo not given)
202 °C

Continue with CCOc1ccc(F)cc1C(=O)c1sc2nc(C)c(C)cc2c1N
170 °C

Continue with COc1cccc(S(=O)(=O)Nc2nccnc2OC)c1Cl
151 to 152 °C

Continue with O=C1CCN(c2ccc(S(=O)(=O)NCc3ccccc3)cc2)CC1
136 to 140 °C

----------
melting point values, listed per item

// worked examples, melting point included
Compound | Endpoint Value
CCCC1CCC(C2CCC(C3CCCC(=O)C3)CC2)CC1 (stereo not given) | 1.5 °C
COc1cc(OC)nc(NC(=O)NS(=O)(=O)C(C)c2ccccc2[N+](=O)[O-])n1 (stereo not given) | 168 to 170 °C
COc1ccc(N2CCN(c3c(C)c(C)c4c(c3C)CC(C)O4)CC2)c(OC)c1 (stereo not given) | 142 to 144 °C
CC(=O)Oc1c(Cl)nc(-c2ccccc2)nc1Cl | 145 to 147 °C
Cc1c(C(=O)OCc2ccccc2)sc2ccc3[nH]c4c(c3c12)CNCC4 | 178 °C
COC(=O)CCCCCNC(=O)C(CSC(C)=O)Cc1ccccc1 (stereo not given) | 50 to 54 °C
CCCCCC(=O)Nc1nc2cc(Cl)ccc2nc1NC(=O)CC | 158 to 160 °C
COc1ccc(Nc2nc(=O)c3cccnc3s2)cc1 | 250 to 251 °C
CC(=O)Nc1nc(CCc2ccc(NC(=O)OC(C)(C)C)cc2)c(C(=O)NCc2ccc(S(C)(=O)=O)cc2)s1 | 192 to 193 °C

Dear colleague, I am looking for the recorded melting point of the following compound: OCc1c(Cl)ccc2nnsc12
138 to 140 °C

----------
Readout Type: melting point

// worked examples, melting point included
Molecule | melting point
CN(CCN1CCOCC1)c1ccc(OCC(=O)N[C@@H](CC(N)=O)C(=O)N[C@@H](Cc2ccccc2)[C@H](O)C(=O)N2CCC[C@H]2C(=O)NC(C)(C)C)cc1 | 85 to 95 °C
N#Cc1cc(C(=O)c2ccccc2)ccc1[N+](=O)[O-] | 117 to 119 °C
COC(=O)C1=C(O)c2cc(Cl)ccc2S(=O)(=O)N1C | 201 °C
Cc1c(NC(=O)c2ccc(-c3ccc(F)cc3)nc2)ccc2cc(CN3CCCC3)cnc12 | 207 to 209 °C
CCC(C)COC(=O)Oc1ccc(-c2ccc(OC(=O)OCC(C)CC)cc2)cc1 (centres undefined) | 85.5 °C
CCN1C(=O)CCc2cnc(Nc3ccccc3)cc21 | 137 to 138 °C
CCCOCCOc1ccc(COc2ccc3c(c2)C=C(C(=O)Nc2ccc(CN(C)C4CCOCC4)cc2)CCS3(=O)=O)cc1OCC | 146 to 147 °C
CC(=O)NC[C@H]1CN(c2ccc(N3CCC(C#N)(Nc4ccccc4)CC3)c(F)c2)C(=O)O1 | 81 to 85 °C
CC(=O)OC1CCC2(C)C(CCC3=C4C(=O)CC(C(C)CCC=O)C4(C)CCC32)C1 (centres undefined) | 162 to 164 °C
Cc1c(C(=O)O)ccc(S(C)(=O)=O)c1-c1ccc(S(C)(=O)=O)cc1 | 214 to 215 °C

Dear colleague, I am looking for the recorded melting point of the following molecule: Cc1cccc(C)c1NC(=O)Nc1ccc(CC(=O)NC(CC(C)C)c2ncc(CCC(=O)O)s2)cc1 (centres undefined)
125 to 127 °C

Continue with Cn1ccnc1-c1ccc(C(=O)CN=[N+]=[N-])cc1
> 250 °C

Continue with O=C(O)c1ccc(CN(C(=O)Nc2cc(C(F)(F)F)cc(C(F)(F)F)c2)c2ccc(C3CCCCC3)cc2)cc1
148 to 150 °C

Continue with Cc1ccc(C(=O)C2=C(O)C(=O)N(c3ncc(S(=O)(=O)N(C)C)s3)C2c2ccc(C(C)C)cc2)cc1 (centres undefined)
237 to 241 °C

Continue with CNC(=O)n1nc(Oc2ncc(C(F)(F)F)cc2Cl)c(Cl)c1C
81 to 83 °C

Continue with Cc1c2c(c(C)n1CCCN(C)C)C(C)(C#N)CC2(C)C (centres undefined)
90.5 to 91 °C

Continue with CNC(=O)C(C)(C)N=NC(C)(C)C(=O)NC
153 °C

----------
Readout Type: melting point

Molecule | melting point
CCCCOc1cc2cc(CO)c(CO)c(-c3ccnc(NN)c3)c2cc1OC | 93 to 97 °C
O=C(Cc1cccc(Br)c1)Nc1cccc(C(=O)NCCO)c1 | 202 °C
CCOC(=O)c1cnc(CC)nc1NCc1ccc(-c2ccccc2-c2nnnn2C(c2ccccc2)(c2ccccc2)c2ccccc2)cc1 | 134 to 136 °C
Cc1ccc(S(=O)(=O)N2CCC(c3ccccc3)CC2)cc1 | 153 to 154 °C

Next up:
Dear colleague, I am looking for the recorded melting point of the following molecule: COC(COC(=O)C1=C(C)NC2=C(C(=O)CNC2)C1c1cccc(Cl)c1Cl)c1ccccc1 (stereo not given)
150 to 153 °C
